- target-entity: Protein kinase C alpha type (Homo sapiens, UniProt P17252)
- test-name: Displacement of [3H]PDBu from recombinant human PKC-alpha after 5 mins by scintillation counting analysis in presence of phosphatidylserine
pKi: −log10 of the molar value.
parameter-measured: pKi

>>> recorded_measurement("CCCC(CCC)C(=O)OCC1(CO)C/C(=C\\c2cccc3c2ccn3C)C(=O)O1 (stereo not given)")
7.75
>>> recorded_measurement("CCCC(CCC)C(=O)OCC1(CO)C/C(=C\\c2cccc3ccn(C)c23)C(=O)O1 (stereo not given)")
7.89
>>> recorded_measurement("CCCC(CCC)C(=O)OCC1(CO)C/C(=C\\c2cn(C)c3ccccc23)C(=O)O1 (stereo not given)")
7.79
>>> recorded_measurement("CCCC(CCC)C(=O)OCC1(CO)C/C(=C\\c2ccc3c(ccn3C)c2)C(=O)O1 (stereo not given)")
8.08
>>> recorded_measurement("CCCC(CCC)C(=O)OCC1(CO)C/C(=C\\c2ccc3ccn(C)c3c2)C(=O)O1 (stereo not given)")
8.12

###

Listed here are compounds together with their documented Ki.
- target-entity: UniProt O95267
- Sequence (O95267 whole entry, the tested form may be a part): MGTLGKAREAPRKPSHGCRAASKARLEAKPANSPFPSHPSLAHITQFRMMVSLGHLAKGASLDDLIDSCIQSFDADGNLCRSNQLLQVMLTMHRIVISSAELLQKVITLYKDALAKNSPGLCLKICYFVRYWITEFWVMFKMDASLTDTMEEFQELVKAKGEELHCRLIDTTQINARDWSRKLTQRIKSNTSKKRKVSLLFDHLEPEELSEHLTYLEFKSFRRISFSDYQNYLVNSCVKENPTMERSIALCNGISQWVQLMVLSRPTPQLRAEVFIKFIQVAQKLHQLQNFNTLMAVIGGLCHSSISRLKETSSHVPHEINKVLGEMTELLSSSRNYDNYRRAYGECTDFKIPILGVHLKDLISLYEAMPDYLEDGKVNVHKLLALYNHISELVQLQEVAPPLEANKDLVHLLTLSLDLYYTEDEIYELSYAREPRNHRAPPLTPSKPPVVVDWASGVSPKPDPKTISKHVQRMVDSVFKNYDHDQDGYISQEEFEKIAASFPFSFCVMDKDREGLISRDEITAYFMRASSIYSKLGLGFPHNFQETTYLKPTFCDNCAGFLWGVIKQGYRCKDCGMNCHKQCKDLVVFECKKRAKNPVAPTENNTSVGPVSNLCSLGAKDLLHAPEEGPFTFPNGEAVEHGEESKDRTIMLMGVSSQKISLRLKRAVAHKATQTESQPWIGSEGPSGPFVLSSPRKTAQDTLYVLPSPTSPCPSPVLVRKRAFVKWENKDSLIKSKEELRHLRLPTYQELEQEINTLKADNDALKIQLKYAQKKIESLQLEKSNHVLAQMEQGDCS
- test-name: Displacement of [3H]PDBu from recombinant RasGRP1 C1 domain (unknown origin) after 10 mins by scintillation counting analysis in presence of phosphatidylserine
parameter-measured: Ki (nM)

>>> recorded_measurement("CCCC(CCC)C(=O)OCC1(CO)C/C(=C\\c2cccc3ccn(C)c23)C(=O)O1 (stereo not given)")
0.69
>>> recorded_measurement("CCCC(CCC)C(=O)OCC1(CO)C/C(=C\\c2ccc3c(ccn3C)c2)C(=O)O1 (stereo not given)")
0.41
>>> recorded_measurement("CCCC(CCC)C(=O)OCC1(CO)C/C(=C\\c2ccc3ccn(C)c3c2)C(=O)O1 (stereo not given)")
0.87
>>> recorded_measurement("CCCC(CCC)C(=O)OCC1(CO)C/C(=C\\c2cccc3c2ccn3C)C(=O)O1 (stereo not given)")
1.55
>>> recorded_measurement("CCCC(CCC)C(=O)OCC1(CO)C/C(=C\\c2cn(C)c3ccccc23)C(=O)O1 (stereo not given)")
0.25

###

- Test system: Lipid bilayer
- test-name: Binding affinity to […] embedded 9:1 DMPC/DMPG giant vesicle at 2.42 to 6.05 uM by fluorescence anisotropy method
Active and inactive are the calls of the source. No cut-off for these calls is given here.
Labels: class 1 = active, class 0 = inactive

>>> class_assignment("CCCC(CCC)C(=O)OCC1(CO)C/C(=C\\c2ccc3c(ccn3C)c2)C(=O)O1 (stereo not given)")
"class 0"
>>> class_assignment("CCCC(CCC)C(=O)OCC1(CO)C/C(=C\\c2cn(C)c3ccccc23)C(=O)O1 (stereo not given)")
"class 1"
>>> class_assignment("CCCC(CCC)C(=O)OCC1(CO)C/C(=C\\c2cccc3ccn(C)c23)C(=O)O1 (stereo not given)")
"class 1"
>>> class_assignment("CCCC(CCC)C(=O)OCC1(CO)C/C(=C\\c2cccc3c2ccn3C)C(=O)O1 (stereo not given)")
"class 0"
>>> class_assignment("CCCC(CCC)C(=O)OCC1(CO)C/C(=C\\c2ccc3ccn(C)c3c2)C(=O)O1 (stereo not given)")
"class 1"

###

- target-entity: UniProt Q8IV61
- Sequence (whole entry): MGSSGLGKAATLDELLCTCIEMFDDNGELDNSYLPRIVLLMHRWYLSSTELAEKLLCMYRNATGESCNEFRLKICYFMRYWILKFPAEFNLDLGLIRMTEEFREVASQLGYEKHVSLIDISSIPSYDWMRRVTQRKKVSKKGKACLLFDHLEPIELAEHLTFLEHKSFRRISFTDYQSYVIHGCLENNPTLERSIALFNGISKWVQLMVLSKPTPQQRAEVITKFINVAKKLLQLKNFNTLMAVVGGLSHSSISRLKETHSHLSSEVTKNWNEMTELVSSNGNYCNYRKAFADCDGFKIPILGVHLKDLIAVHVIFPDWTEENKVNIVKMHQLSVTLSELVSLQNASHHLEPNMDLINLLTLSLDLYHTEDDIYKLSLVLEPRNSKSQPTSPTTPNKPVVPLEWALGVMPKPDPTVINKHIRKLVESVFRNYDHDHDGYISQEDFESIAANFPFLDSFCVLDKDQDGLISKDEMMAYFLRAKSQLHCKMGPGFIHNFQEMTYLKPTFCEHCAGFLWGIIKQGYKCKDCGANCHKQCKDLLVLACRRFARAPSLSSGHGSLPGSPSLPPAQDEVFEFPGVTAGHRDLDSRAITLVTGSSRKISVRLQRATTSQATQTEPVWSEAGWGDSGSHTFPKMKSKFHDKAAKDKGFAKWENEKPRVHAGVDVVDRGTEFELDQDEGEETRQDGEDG
- test-name: Activation of RasGRP3 (unknown origin) overexpressed in HEK293 cells assessed as protein phosphorylation at T133 at 0.1 to 30 uM after 30 mins by Western blot analysis
- Assay type: cell-based
Calls of active or inactive are those of the source. The rule behind the calls is not given here.
parameter-measured: Activity

>>> recorded_measurement("CCCC(CCC)C(=O)OCC1(CO)C/C(=C\\c2cccc3c2ccn3C)C(=O)O1 (stereo unspecified)")
"Active"
>>> recorded_measurement("CCCC(CCC)C(=O)OCC1(CO)C/C(=C\\c2cccc3ccn(C)c23)C(=O)O1 (stereo unspecified)")
"Active"
>>> recorded_measurement("CCCC(CCC)C(=O)OCC1(CO)C/C(=C\\c2ccc3ccn(C)c3c2)C(=O)O1 (stereo unspecified)")
"Active"
>>> recorded_measurement("CCCCCCCCCCCCCC(=O)O[C@@H]1[C@@H](C)[C@@]2(O)[C@@H](C=C(CO)C[C@]3(O)C(=O)C(C)=C[C@@H]23)[C@@H]2C(C)(C)[C@]12OC(C)=O")
"Active"
>>> recorded_measurement("CCCC(CCC)C(=O)OCC1(CO)C/C(=C\\c2ccc3c(ccn3C)c2)C(=O)O1 (stereo unspecified)")
"Active"
>>> recorded_measurement("CCCC(CCC)C(=O)OCC1(CO)C/C(=C\\c2cn(C)c3ccccc23)C(=O)O1 (stereo unspecified)")
"Active"
